# Tested on: A/WSN/33
# Assay Info: Influenza antiviral assay (IF-based) in A549 cells
# Format: cell-based, H1N1 influenza A virus
# Test Parameters: Influenza A virus, A549, 24 h
Property Label: IC50 (µM)
Please respond with the number in µM and leave the unit unwritten.

Request: // query IC50 value for entry Cc1c(-c2ccc(O)cc2)n(Cc2ccc(OCCN3CCCCC3)cc2)c2ccc(O)cc12 [Pipendoxifene]
Result: 7.49

###

# Assay Info: in vivo
# Test Parameters: rat, po, 1000 mg/kg
Property Label: concentration at 6 h (ng/mL)
Lab book: enter the figure in ng/mL, no units written.

Request: Which concentration at 6 h value belongs to Cc1c(-c2ccc(O)cc2)n(Cc2ccc(OCCN3CCCCC3)cc2)c2ccc(O)cc12 [Pipendoxifene] ?
Result: 501
